- Tested on: CAKI-1
- protocolDescription: NCI tumour cell line growth inhibition, 48 h
Active and inactive are the calls of the source. Cut-off read from the data, not from the text of the source: active = GI50 up to about 1.1 µM and inactive = higher.
measuredEndpoint: GI50

Query: Given the compound `CN(C)c1ccc(/C=C(\C#N)C(=O)c2ccccc2)cc1Br` , what is its reported GI50?
Response: > 100 µM (inactive)

Query: Given the compound `CCn1c(-c2cc3ccccc3cc2OC(C)=O)n[nH]c1=S` , what is its reported GI50?
Response: 30.8 µM (inactive)

Query: Given the compound `CC(=O)O/N=C/c1ncccc1CO` , what is its reported GI50?
Response: > 100 µM (inactive)

Query: Given the compound CCCCCCCCCCCCCCCC(=O)OCC1OC(n2cc(F)c(=O)[nH]c2=O)C(N)C(O)C1O (centres undefined) , what is its reported GI50?
Response: 21 µM (inactive)

Query: Given the compound Cc1ccc(C)c(NC(=O)C(=O)C(C(=O)c2ccc3ccccc3c2)C2OC(=O)c3ccccc32)c1 (centres undefined) , what is its reported GI50?
Response: 20 µM (inactive)

Query: Given the compound `COc1cc(Br)c(/C=N\c2cccc3ccc(OS(=O)(=O)c4ccc([N+](=O)[O-])cc4)cc23)cc1OC` , what is its reported GI50?
Response: 6.19 µM (inactive)

Query: Given the compound COc1ccc(C(=O)C(C(=O)CCC(=O)Nc2ccc(C)c(C)c2)c2ccc(OC)cc2)cc1 (centres undefined) , what is its reported GI50?
Response: > 100 µM (inactive)

Query: Given the compound `O=C(c1ccccc1)c1sc2c(=O)c(C(=O)c3ccccc3)c(C(=O)c3ccccc3)sc2c(=O)c1C(=O)c1ccccc1` , what is its reported GI50?
Response: 18.9 µM (inactive)

Query: Given the compound `Cc1cc(C)c2c(n1)S(=O)(=O)N(CCCN1CCN(c3cccc(Cl)c3)CC1)C(C(=O)c1ccc(Br)cc1)=C2O` , what is its reported GI50?
Response: 6.9 µM (inactive)

---

- System: DU-145
- protocolDescription: NCI tumour cell line growth inhibition, 48 h
Active and inactive are the calls of the source. Cut-off read from the data, not from the text of the source: active = GI50 up to about 1.1 µM and inactive = higher.
Consider the following compounds; for each one, report its GI50.

Query: Find the measured GI50: item Cc1cn(C2CCN(CC3COC(C)(C)O3)O2)c(=O)[nH]c1=O (stereo not drawn) , target or system DU-145.
Response: > 100 µM (inactive)

Query: Find the measured GI50: item `Cc1ccc(Nc2nnc3n2S(=O)(=O)c2cc(C)c(Cl)cc2S3)cc1` , target or system DU-145.
Response: 8.09 µM (inactive)

Query: Find the measured GI50: item ClC(Cl)(Cl)C1CCOC1n1nc2ccccc2n1 (stereo not drawn) , target or system DU-145.
Response: > 100 µM (inactive)

---

- Test system: MOLT-4
- protocolDescription: NCI tumour cell line growth inhibition, 48 h
Calls of active or inactive are those of the source. Cut-off read from the data, not from the text of the source: active = GI50 up to about 1.1 µM and inactive = higher.
measuredEndpoint: GI50

Query: Given the compound `CCOc1ccc(-c2nc(-c3oc4ccccc4c(=O)c3OC(C)=O)cs2)cc1` , what is its reported GI50?
Response: > 10 µM (inactive)

Query: Given the compound `CC(C)=NN/C(=N\c1ccc(Cl)cc1)NS(=O)(=O)c1cc(Cl)c(Oc2ccc([N+](=O)[O-])cc2Cl)c(Cl)c1` , what is its reported GI50?
Response: 25.4 µM (inactive)

Query: Given the compound COC1=C(C)C(=O)c2c(cc3c(c2O)C(C)(CCC=C(C)C)C(C)O3)C1=O (stereo not given) , what is its reported GI50?
Response: > 100 µM (inactive)

Query: Given the compound `COC(=O)c1ccccc1Nc1ccccc1C(=O)OC` , what is its reported GI50?
Response: > 100 µM (inactive)

Query: Given the compound OCC(Cn1cncn1)(c1ccc(F)cc1F)n1cncn1 (stereo not given) , what is its reported GI50?
Response: > 100 µM (inactive)
